System: K. pneumoniae MP-546
Assay: Broth dilution MIC determination (CLSI), K. pneumoniae MP-546
Type: cell-based
Conditions: Klebsiella pneumoniae, MP546; strain MP-546, broth dilution
measurement name: MIC

Use the examples below as a reference point.
* CO[C@]1(C)C[C@@H](C)CN(C)[C@@H]([C@H]2CCN(C(=O)CN(C)C)C2)COC(=O)C(C)(C)C(=O)[C@H](C)[C@H]1O[C@@H]1O[C@H](C)C[C@H](N(C)C)[C@H]1O | 4 to 32 µg/mL
* CO[C@]1(C)C[C@@H](C)CN(C)[C@H](C2CN(CC=C(C)C)C2)COC(=O)C(C)(C)C(=O)[C@H](C)[C@H]1O[C@@H]1O[C@H](C)C[C@H](N(C)C)[C@H]1O | < 4 µg/mL

Which MIC value is on record for CO[C@]1(C)C[C@@H](C)CN(C)[C@H](C2CCNCC2)[C@H](C)OC(=O)C(C)(C)C(=O)[C@H](C)[C@H]1O[C@@H]1O[C@H](C)C[C@H](N(C)C)[C@H]1O ?
> 32 µg/mL

* * *

Tested on: K. pneumoniae MP-546
Test: Broth dilution MIC determination (CLSI), K. pneumoniae MP-546
Type: cell-based
Settings: Klebsiella pneumoniae, MP546; strain MP-546, broth dilution
measurement name: MIC

Use the examples below as a reference point.
• CO[C@]1(C)C[C@@H](C)CN(C)[C@H](C2CN(C3CCCCC3)C2)COC(=O)C(C)(C)C(=O)[C@H](C)[C@H]1O[C@@H]1O[C@H](C)C[C@H](N(C)C)[C@H]1O = < 4 µg/mL
• CO[C@]1(C)C[C@@H](C)CN(C)[C@H](c2ccc(Br)cc2)COC(=O)C(C)(C)C(=O)[C@H](C)[C@H]1O[C@@H]1O[C@H](C)C[C@H](N(C)C)[C@H]1O = > 32 µg/mL
• CO[C@]1(C)C[C@@H](C)CN(C)[C@@H](C2CCN(C[C@@H](N)CO)CC2)CO[C@@H](O)C(C)(C)C(=O)[C@H](C)[C@H]1O[C@@H]1O[C@H](C)C[C@H](N(C)C)[C@H]1O = < 4 µg/mL

Which MIC value is on record for CO[C@]1(C)C[C@@H](C)CN(C)[C@H](C2CCN(CC(C)C)CC2)COC(=O)C(C)(C)C(=O)[C@H](C)[C@H]1O[C@@H]1O[C@H](C)C[C@H](N(C)C)[C@H]1O ?
< 4 µg/mL

Which MIC value is on record for CO[C@]1(C)C[C@@H](C)CN(C)[C@H](C2CN(CC3CCOC3)C2)COC(=O)C(C)(C)C(=O)[C@H](C)[C@H]1O[C@@H]1O[C@H](C)C[C@H](N(C)C)[C@H]1O (stereo partly shown) ?
4 to 32 µg/mL

Which MIC value is on record for CNCC(=O)N1C2CCC1CC([C@@H]1COC(=O)C(C)(C)C(=O)[C@H](C)[C@@H](O[C@@H]3O[C@H](C)C[C@H](N(C)C)[C@H]3O)[C@](C)(OC)C[C@@H](C)CN1C)C2 (stereo partly shown) ?
> 32 µg/mL

Which MIC value is on record for CO[C@]1(C)C[C@@H](C)CN(C)[C@H](C2CCN(S(C)(=O)=O)CC2)COC(=O)C(C)(C)C(=O)[C@H](C)[C@H]1O[C@@H]1O[C@H](C)C[C@H](N(C)C)[C@H]1O ?
4 to 32 µg/mL

Which MIC value is on record for CO[C@]1(C)C[C@@H](C)CN(C)[C@H](C2CNC2)COC(=O)C(C)(C)C(=O)[C@H](C)[C@H]1O[C@@H]1O[C@H](C)C[C@H](N(C)C)[C@H]1O ?
4 to 32 µg/mL
